- System Under Test: T1, human IL-36R extracellular domain expressed with a C-terminal mouse IgG2a Fc tag (hIL-36R-mFc) (human; mouse, UniProt Q9HB29 20-337)
- T1 construct: not shown: mouse IgG2a Fc, E98-K330
- T1 sequence (looked up): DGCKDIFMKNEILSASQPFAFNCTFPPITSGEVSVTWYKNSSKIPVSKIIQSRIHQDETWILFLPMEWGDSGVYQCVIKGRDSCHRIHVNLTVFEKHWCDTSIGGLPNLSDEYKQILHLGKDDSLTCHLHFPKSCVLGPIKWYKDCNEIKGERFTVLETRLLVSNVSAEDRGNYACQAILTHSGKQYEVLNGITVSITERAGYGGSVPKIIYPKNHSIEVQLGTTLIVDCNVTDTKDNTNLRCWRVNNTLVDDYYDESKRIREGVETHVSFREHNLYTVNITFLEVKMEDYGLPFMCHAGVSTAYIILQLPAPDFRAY
- Measurement Notes: SPR Biacore 4000, mAb captured on anti-hFc, 25C
Listing of entries alongside the reported log10 of kon.
Annotation: log10 of kon, M⁻¹ s⁻¹ basis.

As a guide, the following entries are already answered.
[[record]]
binder = "H4H14708P2 (antibody, human IgG4 S228P, kappa, V domains shown, Fully human anti-IL-36R antibody) VH: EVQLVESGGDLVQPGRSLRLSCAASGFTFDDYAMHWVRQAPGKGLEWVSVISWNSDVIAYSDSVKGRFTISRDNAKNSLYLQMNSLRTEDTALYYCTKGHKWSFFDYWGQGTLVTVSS VL: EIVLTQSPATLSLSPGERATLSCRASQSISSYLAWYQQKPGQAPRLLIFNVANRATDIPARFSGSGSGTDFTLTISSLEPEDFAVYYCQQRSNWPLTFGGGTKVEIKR"
measurement_kind = "log10 of kon"
observed_measurement = 5.61

[[record]]
binder = "H4H14706P2 (antibody, human IgG4 S228P, kappa, V domains shown, Fully human anti-IL-36R antibody) VH: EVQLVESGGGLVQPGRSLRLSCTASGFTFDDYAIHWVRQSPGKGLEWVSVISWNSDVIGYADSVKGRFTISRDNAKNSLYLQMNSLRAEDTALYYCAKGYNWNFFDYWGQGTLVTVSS VL: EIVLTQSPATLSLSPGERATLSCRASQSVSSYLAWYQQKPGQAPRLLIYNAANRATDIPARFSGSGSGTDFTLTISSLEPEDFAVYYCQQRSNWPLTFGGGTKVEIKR"
measurement_kind = "log10 of kon"
observed_measurement = 5.76

[[record]]
binder = "H4H14699P2 (antibody, human IgG4 S228P, kappa, V domains shown, Fully human anti-IL-36R antibody) VH: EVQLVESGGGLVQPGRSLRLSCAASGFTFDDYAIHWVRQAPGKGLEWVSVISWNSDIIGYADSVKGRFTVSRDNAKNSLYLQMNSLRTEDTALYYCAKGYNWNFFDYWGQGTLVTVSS VL: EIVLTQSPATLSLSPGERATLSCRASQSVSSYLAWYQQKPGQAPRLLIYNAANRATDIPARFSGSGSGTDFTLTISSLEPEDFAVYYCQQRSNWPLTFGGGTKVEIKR"
measurement_kind = "log10 of kon"
observed_measurement = 5.75

[[record]]
binder = "H4H14757P (antibody, human IgG4 S228P, kappa, V domains shown, Fully human anti-IL-36R antibody) VH: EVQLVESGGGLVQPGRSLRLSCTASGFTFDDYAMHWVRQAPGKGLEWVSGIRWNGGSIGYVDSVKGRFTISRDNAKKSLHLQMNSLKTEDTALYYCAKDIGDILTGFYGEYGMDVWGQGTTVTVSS VL: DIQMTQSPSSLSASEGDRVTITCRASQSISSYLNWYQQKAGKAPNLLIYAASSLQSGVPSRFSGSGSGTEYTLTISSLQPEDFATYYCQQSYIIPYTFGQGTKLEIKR"
measurement_kind = "log10 of kon"
observed_measurement = 5.76

[[record]]
binder = "H4H14731P (antibody, human IgG4 S228P, kappa, V domains shown, Fully human anti-IL-36R antibody) VH: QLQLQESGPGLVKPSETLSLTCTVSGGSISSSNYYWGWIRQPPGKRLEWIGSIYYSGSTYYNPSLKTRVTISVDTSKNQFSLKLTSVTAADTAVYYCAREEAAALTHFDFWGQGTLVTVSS VL: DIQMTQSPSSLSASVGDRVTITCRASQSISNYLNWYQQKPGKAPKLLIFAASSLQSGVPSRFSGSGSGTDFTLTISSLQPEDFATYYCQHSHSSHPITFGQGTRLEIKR"
measurement_kind = "log10 of kon"
observed_measurement = 4.75


Report log10 of kon for H4H14700P2 (antibody, human IgG4 S228P, kappa, V domains shown, Fully human anti-IL-36R antibody) VH: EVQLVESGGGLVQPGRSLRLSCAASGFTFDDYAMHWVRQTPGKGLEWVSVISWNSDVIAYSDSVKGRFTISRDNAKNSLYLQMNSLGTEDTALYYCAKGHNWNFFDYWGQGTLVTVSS VL: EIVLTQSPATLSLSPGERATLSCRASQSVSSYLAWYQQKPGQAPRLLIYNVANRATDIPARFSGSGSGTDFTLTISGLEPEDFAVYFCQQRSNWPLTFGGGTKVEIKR please. 5.71

Any idea what its log10 of kon is? The binder is H4H14758P (antibody, human IgG4 S228P, kappa, V domains shown, Fully human anti-IL-36R antibody) VH: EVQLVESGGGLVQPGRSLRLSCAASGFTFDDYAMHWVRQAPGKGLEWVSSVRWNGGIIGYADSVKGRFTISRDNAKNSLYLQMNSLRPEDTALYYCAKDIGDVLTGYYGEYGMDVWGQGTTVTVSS VL: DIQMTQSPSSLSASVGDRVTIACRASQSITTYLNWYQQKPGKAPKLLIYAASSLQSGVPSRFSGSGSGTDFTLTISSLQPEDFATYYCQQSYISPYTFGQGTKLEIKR 5.72

Param item = H4H14709P (antibody, human IgG4 S228P, kappa, V domains shown, Fully human anti-IL-36R antibody) VH: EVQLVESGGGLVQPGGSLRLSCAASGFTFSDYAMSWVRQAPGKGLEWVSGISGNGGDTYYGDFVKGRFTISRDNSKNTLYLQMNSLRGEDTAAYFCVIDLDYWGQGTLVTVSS VL: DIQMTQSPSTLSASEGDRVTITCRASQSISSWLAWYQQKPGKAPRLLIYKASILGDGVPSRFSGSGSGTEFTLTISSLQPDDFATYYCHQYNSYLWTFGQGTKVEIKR ; retrieve measured log10 of kon. 5.41
